- Target Entity: human MAO-B (Homo sapiens, UniProt P27338)
- Construct: expressed in transfected cells; host or cells: EBNA cells (transient transfection), membrane preparation
- Sequence (P27338 1-520): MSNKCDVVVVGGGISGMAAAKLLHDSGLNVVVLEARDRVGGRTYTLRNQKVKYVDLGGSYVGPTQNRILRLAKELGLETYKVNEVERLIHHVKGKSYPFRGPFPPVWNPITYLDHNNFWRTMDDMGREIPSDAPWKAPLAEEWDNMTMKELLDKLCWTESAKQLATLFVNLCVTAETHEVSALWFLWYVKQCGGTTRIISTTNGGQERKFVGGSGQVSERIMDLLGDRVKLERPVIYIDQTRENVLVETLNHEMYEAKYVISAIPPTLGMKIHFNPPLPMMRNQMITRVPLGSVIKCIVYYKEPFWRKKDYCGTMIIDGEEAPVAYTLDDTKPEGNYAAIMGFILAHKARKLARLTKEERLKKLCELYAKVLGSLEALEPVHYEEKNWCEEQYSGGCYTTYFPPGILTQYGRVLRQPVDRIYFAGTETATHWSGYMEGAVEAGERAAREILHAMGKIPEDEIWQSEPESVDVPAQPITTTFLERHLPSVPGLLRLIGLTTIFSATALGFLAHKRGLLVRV
- Assay Method Text: MAO-B enzymatic activity, spectrophotometric assay (Amplex Red, tyramine substrate) on membranes of transfected EBNA cells
- Assay type: biochemical
- Recorded Conditions: membranes of EBNA cells transfected with human MAO-B cDNA, 30 min preincubation at 37° C., pH 7.4
Parameter Measured: IC50 (µM)

# example entries with known answers
Compound: CNC(=O)COc1ccc(OCc2ccccc2)cc1
IC50 (µM): 0.052
--
Compound: CCC(Oc1ccc(OCc2cccc(F)c2)cc1)C(=O)NC (racemic)
IC50 (µM): 0.056
--
Compound: NC(=O)CCOc1ccc(OCc2cccc(F)c2)cc1
IC50 (µM): 0.044

1: CNC(=O)C(C)Oc1ccc(OCc2ccc(C#N)cc2)cc1 (racemic)
2: NC(=O)OCCc1ccc(OCc2cccc(F)c2)cc1
3: CNC(=O)C(C)Oc1ccc(OCc2cccc(Cl)c2)cc1 (racemic) [Example 12]
4: CNC(=O)C(C)Oc1ccc(OCc2cccc(Cl)c2)cc1 (single isomer, unassigned) [Example 13]
Query: Order field: IC50 | Direction: descending (largest first) // list labels; follow requested order
Response: 2, 1, 3, 4
(2: 0.068 µM, 1: 0.031 µM, 3: 0.015 µM, 4: 0.009 µM)

Hello, the source for this data is patent US7253318B2, in case you need it.
